- Tgt: ALK2R206H (mutant ALK2, N-terminally tagged with GST) (Homo sapiens, UniProt Q04771, R206H)
- Assay explanation: ALK binding assay (LANTHASCREEN TR-FRET competitive binding, displacement of Kinase Tracer 178)
- Recorded conditions: read-out: Binding Assay (IC50 class)
pIC50: −log10 of the molar value.
Let's look at some compounds and their measured pIC50.
Recorded endpoint: pIC50

                                    molecule       reading
 0  CCOC(=O)N1CCN(c2ccnc3[nH]c(-c4cnn(C)c4CC)cc23)CC1        ≥ 8.00
 1  CCN1CCN(c2ccc(-c3cc4c(N5CCN(C(=O)C6CC6)CC5)ccnc4[nH]3)cc2)CC1        ≥ 8.00
 2  Cc1c(-c2cnn(C)c2)[nH]c2nccc(N3CCN(C(=O)OC4CCC4)CC3)c12        ≥ 8.00
 3  O=C(C1CC1)N1CCN(c2ccnc3[nH]c(-c4ccccc4)cc23)CC1  7.30 to 8.00
 4  Cc1nc(-c2cc3c(N4CCN(C(=O)O[C@H]5CCC5(F)F)CC4)ccnc3[nH]2)cn1C        ≥ 8.00
 5  Cn1cc(-c2[nH]c3nccc(N4CCN(C(=O)O[C@H]5CCOC5)CC4)c3c2C#N)cn1        ≥ 8.00
 6  O=C(C1CC1)N1CCN(c2ccnc3[nH]c(-c4cccnc4)cc23)CC1  7.30 to 8.00
 7  CC(C)C(=O)N1CCN(c2ccnc3[nH]c(-c4cnn(C)c4)cc23)CC1  7.30 to 8.00
 8  Cc1c(-c2cc3c(N4CCN(C(=O)[C@H]5CC[C@H](C#N)CC5)CC4)ccnc3[nH]2)cnn1C        ≥ 8.00
 9  Cn1cc(-c2cc3c(N4CCN(C(=O)OC5CCC5)CC4)ccnc3[nH]2)cn1        ≥ 8.00
10  CCS(=O)(=O)CCOC(=O)N1CCN(c2ccnc3[nH]c(-c4cnn(C)c4)cc23)CC1  7.30 to 8.00
11  Cc1nn(C)cc1-c1cc2c(N3CCN(C(=O)[C@H]4CC[C@H](C#N)CC4)CC3)ccnc2[nH]1        ≥ 8.00
12  Cn1cc(-c2cc3c(N4CCN(C(=O)[C@H]5C[C@H](C#N)C5)CC4)ccnc3[nH]2)cn1        ≥ 8.00
13  CC(C)N1CCC[C@H](c2ccc(-c3cc4c(N5CCN(C(=O)OC6COC6)CC5)ccnc4[nH]3)cc2)C1        ≥ 8.00
14  Cc1nc(-c2[nH]c3nccc(N4CCN(C(=O)O[C@H]5C[C@H](F)C5)CC4)c3c2C#N)cs1        ≥ 8.00
15  CC(C)c1cnc(-c2cc3c(N4CCN(C(=O)OC5COC5)CC4)ccnc3[nH]2)s1        ≥ 8.00

---

- Tgt: human ALK2 R206H (Homo sapiens, UniProt Q04771, R206H)
- Sequence (Q04771 21-509 R206H): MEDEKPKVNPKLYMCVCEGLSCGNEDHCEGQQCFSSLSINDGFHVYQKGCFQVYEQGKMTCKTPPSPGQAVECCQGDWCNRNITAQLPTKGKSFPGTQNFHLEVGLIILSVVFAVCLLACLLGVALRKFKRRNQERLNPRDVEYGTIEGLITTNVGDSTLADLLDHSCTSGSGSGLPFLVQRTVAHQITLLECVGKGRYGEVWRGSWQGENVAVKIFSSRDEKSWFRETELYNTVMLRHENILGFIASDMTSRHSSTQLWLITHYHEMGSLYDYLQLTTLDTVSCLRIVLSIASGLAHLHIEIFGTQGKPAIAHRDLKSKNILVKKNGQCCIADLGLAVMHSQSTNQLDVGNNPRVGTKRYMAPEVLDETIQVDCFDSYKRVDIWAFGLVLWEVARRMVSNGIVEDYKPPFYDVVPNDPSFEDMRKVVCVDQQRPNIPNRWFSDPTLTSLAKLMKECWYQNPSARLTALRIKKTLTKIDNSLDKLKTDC
- Assay explanation: Cell-based ALK2-R206H cell activity assay (Smad1-Ser463/Ser465 phosphorylation by AlphaLISA in HEK293-ALK2-R206H cells)
- Recorded conditions: phospho-Smad1 AlphaLISA, read-out: Cell Line (Cell Assay, IC50 class)
pIC50: −log10 of the molar value.
Each entry below carries its reported pIC50.
Recorded endpoint: pIC50

>>> print(df.to_string())
                                   compound  recorded_endpoint       reading
0  O=C(C1CC1)N1CCN(c2ccnc3[nH]c(-c4ccc(OC5CCC5)cc4)cc23)CC1 [Compound 273]              pIC50  6.30 to 7.00
1  Cc1nc(-c2cc3c(N4CCN(C(=O)OC5CS(=O)(=O)C5)CC4)ccnc3[nH]2)cs1 [Compound 387]              pIC50        ≥ 7.00
2  C[C@@H](F)COC(=O)N1CCN(c2ccnc3[nH]c(-c4cnn(C)c4)cc23)CC1 [Compound 118]              pIC50  6.30 to 7.00
3  Cc1nc(-c2cc3c(N4CCN(C(=O)OC5CC5)CC4)ccnc3[nH]2)cs1 [Compound 109]              pIC50        ≥ 7.00

---

- Tgt: human ALK2 R206H (Homo sapiens, UniProt Q04771, R206H)
- Assay explanation: Cell-based ALK2-R206H cell activity assay (Smad1-Ser463/Ser465 phosphorylation by AlphaLISA in HEK293-ALK2-R206H cells)
- Recorded conditions: phospho-Smad1 AlphaLISA, read-out: Cell Line (Cell Assay, IC50 class)
pIC50: −log10 of the molar value.
Recorded endpoint: pIC50

In [3]: df
Out[3]:
                                    compound  recorded_endpoint       reading
 0  CCn1cnc(-c2[nH]c3nccc(N4CCN(C(=O)OC5COC5)CC4)c3c2C#N)c1 [Compound 290]              pIC50        ≥ 7.00
 1  Cn1cc(-c2cc3c(N4CCN(C(=O)C5CC(F)(F)C5)CC4)ccnc3[nH]2)cn1 [Compound 180]              pIC50  6.30 to 7.00
 2  CCN1CCN(c2ccc(-c3cc4c(N5CCN(C(=O)C6CCC6)CC5)ccnc4[nH]3)cc2)CC1 [Compound 439]              pIC50        ≥ 7.00
 3  CCCOC(=O)N1CCN(c2ccnc3[nH]c(-c4cnn(C)c4)c(Cl)c23)CC1 [Compound 187]              pIC50        ≥ 7.00
 4  CC(C)N1CCN(c2ccc(-c3cc4c(N5CCN(C(=O)C6CC6)CC5)ccnc4[nH]3)cc2)CC1 [Compound 438]              pIC50        ≥ 7.00
 5  O=C(C1CC1)N1CCN(c2ccnc3[nH]c(-c4ccc(C5CCCOC5)cc4)cc23)CC1 (centres unmarked) [Compound 328]              pIC50        ≥ 7.00
 6  O=C(C1CC1)N1CCN(c2ccnc3[nH]c(-c4ccc(C5(O)CCOCC5)cc4)cc23)CC1 [Compound 386]              pIC50        ≥ 7.00
 7  CCOC(=O)N1CCN(c2ccnc3[nH]c(-c4cccnc4)cc23)CC1 [Compound 8]              pIC50  6.30 to 7.00
 8  Cc1nc(-c2[nH]c3nccc(N4CCN(C(=O)OC5CCC5)CC4)c3c2C#N)cn1C [Compound 284]              pIC50        ≥ 7.00
 9  O=C(OC1COC1)N1CCN(c2ccnc3[nH]c(-c4cnn(C5COC5)c4)cc23)CC1 [Compound 300]              pIC50  6.30 to 7.00
10  N#Cc1ccc(-c2cc3c(N4CCN(C(=O)OC5COC5)CC4)ccnc3[nH]2)nc1 [Compound 192]              pIC50  6.30 to 7.00
11  O=C(C1CC1)N1CCN(c2ccnc3[nH]c(-c4ccc(C5(O)CCC5)cc4)cc23)CC1 [Compound 272]              pIC50        ≥ 7.00
12  CC1(c2ccc(-c3cc4c(N5CCN(C(=O)C6CC6)CC5)ccnc4[nH]3)cc2)COC1 [Compound 271]              pIC50        ≥ 7.00
13  Cc1nc(-c2[nH]c3nccc(N4CCN(C(=O)O[C@H]5C[C@H](F)C5)CC4)c3c2C#N)cs1 [Compound 365]              pIC50        ≥ 7.00
14  Cn1cc(-c2cc3c(N4CCN(C(=O)O[C@H]5C[C@@H](O)C5)CC4)ccnc3[nH]2)cn1 [Compound 149]              pIC50  6.30 to 7.00
15  Cn1cc(-c2[nH]c3nccc(N4CCN(C(=O)C5CC5)CC4)c3c2Br)cn1 [Compound 320]              pIC50  6.30 to 7.00
16  CCOC(=O)N1CCN(c2ccnc3[nH]c(-c4ncc(CC)s4)cc23)CC1 [Compound 113]              pIC50        ≥ 7.00
17  CCc1ccc(-c2cc3c(N4CCN(C(=O)C5CC5)CC4)ccnc3[nH]2)cc1 [Compound 52]              pIC50  6.30 to 7.00
18  Cc1c(-c2cnn(C)c2)[nH]c2nccc(N3CCN(C(=O)OC4COC4)CC3)c12 [Compound 148]              pIC50  6.30 to 7.00
19  CCOC(=O)N1CCN(c2ccnc3[nH]c(-c4cn(C)nc4Cl)cc23)CC1 [Compound 122]              pIC50  6.30 to 7.00
20  Cn1cc(-c2cc3c(N4CCN(C(=O)OC5CCC5(F)F)CC4)ccnc3[nH]2)cn1 (centres unmarked) [Compound 262]              pIC50        ≥ 7.00
21  Cn1cnc(-c2[nH]c3nccc(N4CCN(C(=O)OC5CC(F)(F)C5)CC4)c3c2C#N)c1 [Compound 370]              pIC50        ≥ 7.00
22  O=C(COc1ccc(-c2cc3c(N4CCN(C(=O)C5CC5)CC4)ccnc3[nH]2)cc1)N1CCC1 [Compound 420]              pIC50  6.30 to 7.00
23  CCOC(=O)N1CCN(c2ccnc3[nH]c(-c4ncc(C)s4)cc23)CC1 [Compound 49]              pIC50  6.30 to 7.00
24  O=C(C1CC1)N1CCN(c2ccnc3[nH]c(-c4cnn(Cc5ccccc5)c4)cc23)CC1 [Compound 315]              pIC50        ≥ 7.00
25  CC(C)COC(=O)N1CCN(c2ccnc3[nH]c(-c4cnn(C)c4)cc23)CC1 [Compound 97]              pIC50  6.30 to 7.00
